Numbers sourced from paper PMC9315659.

Target: WT LysRS(ΔN65) (human, UniProt Q15046 66-597)
Sequence (Q15046 66-597, stated change not applied): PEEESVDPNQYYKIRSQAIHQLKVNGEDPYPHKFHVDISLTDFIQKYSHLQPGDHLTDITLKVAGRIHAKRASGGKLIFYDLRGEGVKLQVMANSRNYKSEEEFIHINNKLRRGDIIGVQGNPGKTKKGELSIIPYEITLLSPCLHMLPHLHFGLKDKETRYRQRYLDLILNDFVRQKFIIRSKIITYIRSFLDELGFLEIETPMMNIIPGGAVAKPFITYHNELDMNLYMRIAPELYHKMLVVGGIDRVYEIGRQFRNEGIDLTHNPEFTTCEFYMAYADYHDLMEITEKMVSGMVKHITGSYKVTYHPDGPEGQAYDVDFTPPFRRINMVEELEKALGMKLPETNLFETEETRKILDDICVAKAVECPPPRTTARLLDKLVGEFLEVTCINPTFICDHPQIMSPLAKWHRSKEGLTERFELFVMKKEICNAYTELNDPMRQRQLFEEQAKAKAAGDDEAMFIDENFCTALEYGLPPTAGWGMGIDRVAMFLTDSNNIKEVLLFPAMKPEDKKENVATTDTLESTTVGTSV
Experiment: fluorescence anisotropy; 1 mM Mg2+; FA: 20 mM Tris-HCl pH 8, 15 mM NaCl, 35 mM KCl, 1 mM MgCl2, 20 nM RNA (30 nM per supplement), temperature not stated; XL-SHAPE: 20 mM HEPES pH 7.5, 60 mM NaCl
Settings: protein: recombinant; tags: His; chain copies: 2; label: 3' fluorescein (FTSC); tRNA fold
metric_name: Kd (nM)
Answer with a number only, understood to be in nM.

// sample tRNALys3 (structured_RNA, unmodified transcript) RNA: GCCCGGAUAGCUCAGUCGGUAGAGCAUCAGACUUUUAAUCUGAGGGUCCAGGGUUCAAGUCCCUGUUCGGGCGCCA , its Kd was 407
